# target-under-test: 5-hydroxytryptamine receptor 1A (Homo sapiens, UniProt P08908)
# assay: Binding Affinity Assay
# condition-parameters: pH 7.4; 37 °C
# Ki values compiled below
All answers are understood in nM, so give the number only.

- O=c1[nH]c2ccc(N3CCN(Cc4ccc(-c5ccc(F)cc5)cc4)CC3)cc2[nH]1: 27.2

Proceeding to the next molecule to report its Ki.
Request: Would you kindly share the measured Ki for O=c1[nH]c2ccc(C3CCN(Cc4cncc(-c5ccc(F)cc5)c4)CC3)cc2[nH]1 ?
Response: 9.42

---

# target-under-test: UniProt P14416
# Sequence (P14416 whole entry): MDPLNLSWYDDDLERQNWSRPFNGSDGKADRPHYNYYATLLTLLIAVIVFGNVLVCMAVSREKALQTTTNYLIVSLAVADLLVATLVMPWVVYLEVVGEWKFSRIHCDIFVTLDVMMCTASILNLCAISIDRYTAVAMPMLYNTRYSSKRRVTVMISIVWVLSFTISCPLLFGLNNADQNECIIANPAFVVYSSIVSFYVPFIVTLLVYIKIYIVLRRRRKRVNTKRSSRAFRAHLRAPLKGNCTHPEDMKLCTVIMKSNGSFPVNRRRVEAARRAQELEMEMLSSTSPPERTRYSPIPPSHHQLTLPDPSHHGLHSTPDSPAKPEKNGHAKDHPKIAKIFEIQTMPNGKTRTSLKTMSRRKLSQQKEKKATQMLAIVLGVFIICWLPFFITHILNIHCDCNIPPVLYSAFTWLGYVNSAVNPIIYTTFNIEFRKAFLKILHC
Please assign F whenever Ki is at or above 10 nM, and T whenever it is below.

These solved cases illustrate the format of a correct answer.
* O=c1[nH]c2ccc(N3CCN(Cc4ccc(-c5ccc(F)cc5)cc4)CC3)cc2[nH]1 | F
* O=c1[nH]c2ccc(N3CCN(Cc4cncc(C5=CCCC5)c4)CC3)cc2[nH]1 | T
* O=c1[nH]c2ccc(C3CCN(Cc4cccc(C5=CCCC5)c4)CC3)cc2[nH]1 | T
* O=c1[nH]c2ccc(C3CCN(Cc4ccc(-c5ccc(F)cc5)cc4)CC3)cc2[nH]1 | F
* O=c1[nH]c2ccc(N3CCN(Cc4cccc(C5=CCCC5)c4)CC3)cc2[nH]1 | F

Here is the next item to consider.
Request: Hi there! Is Ki for O=c1[nH]c2ccc(N3CCN(Cc4cncc(-c5ccccc5)c4)CC3)cc2[nH]1 below 10 nM, do you know?
Response: F

---

# target-under-test: 5-hydroxytryptamine receptor 1A (Homo sapiens, UniProt P08908)
# Sequence (P08908 whole entry): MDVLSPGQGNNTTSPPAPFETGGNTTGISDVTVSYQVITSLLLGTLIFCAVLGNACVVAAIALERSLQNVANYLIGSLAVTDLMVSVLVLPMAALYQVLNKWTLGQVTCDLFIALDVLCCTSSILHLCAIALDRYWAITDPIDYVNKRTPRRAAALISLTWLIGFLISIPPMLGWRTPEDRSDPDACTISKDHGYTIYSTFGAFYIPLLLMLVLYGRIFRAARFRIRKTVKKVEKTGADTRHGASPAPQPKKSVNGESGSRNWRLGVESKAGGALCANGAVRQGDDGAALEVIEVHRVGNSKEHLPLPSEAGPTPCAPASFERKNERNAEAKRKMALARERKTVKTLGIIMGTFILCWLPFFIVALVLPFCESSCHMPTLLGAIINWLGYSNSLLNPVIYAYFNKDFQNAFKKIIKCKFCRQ
Please assign No whenever Ki is at or above 7 nM, and Yes whenever it is below.

* O=c1[nH]c2ccc(N3CCN(Cc4cncc(C5=CCCC5)c4)CC3)cc2[nH]1 | Yes
* O=c1[nH]c2ccc(C3CCN(Cc4cccc(C5=CCCC5)c4)CC3)cc2[nH]1 | Yes
* O=c1[nH]c2ccc(N3CCN(Cc4ccc(-c5ccccc5)cc4)CC3)cc2[nH]1 | No

Request: Hi there! Is Ki for O=c1[nH]c2ccc(N3CCN(Cc4cncc(-c5ccc(F)cc5)c4)CC3)cc2[nH]1 below 7 nM, do you know?
Response: No

Request: Hi there! Is Ki for O=c1[nH]c2ccc(C3CCN(Cc4cncc(-c5ccccc5)c4)CC3)cc2[nH]1 below 7 nM, do you know?
Response: Yes

Request: Hi there! Is Ki for O=c1[nH]c2ccc(N3CCN(Cc4cccc(C5=CCCC5)c4)CC3)cc2[nH]1 below 7 nM, do you know?
Response: Yes
